Provenance of the data: patent US5457106A

Recorded inhibition at 1 µM values for a group of molecules are listed next.
Tested on: ART (antigen-responding T-cell)
assay_info: In vitro ART (antigen-responding T-cell) proliferation test
Assay type: cell-based, Lewis rat
assay_conditions: Rattus norvegicus, T-cell, 1 μM; read-out: % Inhibition of ART growth
Where a name gives a salt, the structure may show the parent alone.
measurement_name: inhibition at 1 µM

- molecule: "O=C1c2ccccc2C(O)N1CSc1ccncc1 (centres unmarked) [Example 97]"
  obs_value: "30%"
- molecule: "O=C(c1ccccc1)N(CCCSc1ccncc1)Cc1ccccc1 [Example 77, hydrochloride]"
  obs_value: "28%"
- molecule: "COc1ccc(C=C2SC(=O)N(CCCCSc3ccncc3)C2=O)cc1 [Example 152]"
  obs_value: "-20%"
- molecule: "O=C(NCCSc1ccncc1)c1cc2ccccc2s1 [Example 123]"
  obs_value: "15%"
- molecule: "O=c1[nH]c2ccccc2c(=O)n1CCCCSc1ccncc1 [Example 146]"
  obs_value: "22%"

====

Recorded pIC50 values for a group of compounds are listed next.
system: cyclooxygenase (Rattus norvegicus)
Sequence (Q63921 27-602): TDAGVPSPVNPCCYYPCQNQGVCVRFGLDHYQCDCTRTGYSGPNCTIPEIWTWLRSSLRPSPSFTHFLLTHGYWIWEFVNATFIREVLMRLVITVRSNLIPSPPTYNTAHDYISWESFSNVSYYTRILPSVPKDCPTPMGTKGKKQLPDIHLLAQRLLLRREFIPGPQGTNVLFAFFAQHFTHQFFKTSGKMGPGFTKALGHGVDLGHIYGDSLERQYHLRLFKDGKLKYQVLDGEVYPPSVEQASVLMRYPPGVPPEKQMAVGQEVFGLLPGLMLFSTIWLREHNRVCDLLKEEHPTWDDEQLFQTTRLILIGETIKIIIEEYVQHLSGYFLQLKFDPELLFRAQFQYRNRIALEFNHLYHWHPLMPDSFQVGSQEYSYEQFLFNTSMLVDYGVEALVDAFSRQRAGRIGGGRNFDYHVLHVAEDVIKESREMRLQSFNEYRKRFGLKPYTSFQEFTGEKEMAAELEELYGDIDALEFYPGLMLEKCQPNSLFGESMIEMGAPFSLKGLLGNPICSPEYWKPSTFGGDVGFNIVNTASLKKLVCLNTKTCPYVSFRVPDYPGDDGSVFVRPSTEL
assay_info: Cyclooxygenase inhibitory activity (HHT formation from arachidonic acid in rat platelet-rich plasma)
pIC50: −log10 of the molar value.
measurement_name: pIC50

- compound: "CCCCCCCCCCCCCC(=O)NCCCSc1ccncc1 [Example 18]"
  obs_value: 5.15
- compound: "CC(=O)N(CCCSc1ccncc1)Cc1ccccc1.Cl [Example 76, hydrochloride]"
  obs_value: 4.89
- compound: "CCCC(=O)NCCCSc1ccncc1 [Example 14, 4-[3-(butyrylamino)propylthio]pyridine]"
  obs_value: 4.88
- compound: "O=C(NCCCSc1ccncc1)c1cccs1 [Example 46, 4-[3-(2-thenoylamino)propylthio]pyridine]"
  obs_value: 5.10

====

Recorded IC50 values for a group of molecules are listed next.
system: cyclooxygenase (Rattus norvegicus)
assay_info: Cyclooxygenase inhibitory activity (HHT formation from arachidonic acid in rat platelet-rich plasma)

- molecule: "COc1cc(OC)cc(C(=O)NCCCSc2ccncc2)c1 [Example 33]"
  IC50: "2.8 µM"
- molecule: "O=c1[nH]c2ccccc2c(=O)n1CCCCSc1ccncc1 [Example 146]"
  IC50: "5.1 µM"
- molecule: "O=C(NCCCSc1ccncc1)c1ccsc1 [Example 54]"
  IC50: "9 µM"
- molecule: "O=C1SC(=Cc2ccccc2)C(=O)N1CCCSc1ccncc1 [Example 154]"
  IC50: "6 µM"
- molecule: "O=C1c2ccccc2C(=O)N1CCCOc1ccncc1 [Example 83, 4-(3-phthalimidopropyloxy)pyridine]"
  IC50: "10 µM"
- molecule: "O=C(NCCCCSc1ccncc1)c1cccs1 [Example 129, 4-[4-(2-thenonylamino)butylthio]pyridine]"
  IC50: "2.5 µM"
- molecule: "O=C(CCCc1ccccc1)NCCCSc1ccncc1 [Example 39]"
  IC50: "4.4 µM"
- molecule: "O=C1c2ccccc2CN1CCCCOc1ccncc1 [Example 156]"
  IC50: "2.9 µM"
- molecule: "COc1ccc(C(=O)NCCCSc2ccncc2)cc1 [Example 30]"
  IC50: "6.6 µM"
- molecule: "O=C(N(CCSc1ccncc1)Cc1ccccc1)C(F)(F)F [Example 119]"
  IC50: "4.6 µM"
- molecule: "O=C1c2ccccc2S(=O)(=O)N1CCCCSc1ccncc1 [Example 166, 4-(4-saccharinbutylthio)pyridine]"
  IC50: "12 µM"
- molecule: "CCCCCCCC(=O)NCCCSc1ccncc1 [Example 16]"
  IC50: "12.9 µM"
- molecule: "O=C(NCCCCSc1ccncc1)c1ccccc1CO [Example 106]"
  IC50: "3.7 µM"
- molecule: "CCCCCCCCCC(=O)NCCCOc1ccncc1 [Example 88]"
  IC50: "1.2 µM"
- molecule: "O=C1c2ccccc2C(O)N1CCCSc1ccncc1 (stereo not drawn) [Example 110]"
  IC50: "11 µM"

====

Test system: ART (antigen-responding T-cell)
assay_info: In vitro ART (antigen-responding T-cell) proliferation test
Format: cell-based, Lewis rat
assay_conditions: Rattus norvegicus, T-cell, 1 μM; read-out: % Inhibition of ART growth

- molecule: "O=c1c2ccccc2oc(=S)n1CCCCSc1ccncc1"
  system: "ART (antigen-responding T-cell)"
  inhibition at 1 µM, %: -31
- molecule: "O=C1c2ccccc2CN1CCSc1ccncc1"
  system: "ART (antigen-responding T-cell)"
  inhibition at 1 µM, %: -4
- molecule: "Cl.O=C(N(CCCSc1ccncc1)Cc1ccccc1)C(F)(F)F [Example 73, hydrochloride]"
  system: "ART (antigen-responding T-cell)"
  inhibition at 1 µM, %: 23
- molecule: "O=c1c2ccccc2oc(=S)n1CCCSc1ccncc1"
  system: "ART (antigen-responding T-cell)"
  inhibition at 1 µM, %: -21
- molecule: "COc1cc(OC)cc(C(=O)NCCCSc2ccncc2)c1"
  system: "ART (antigen-responding T-cell)"
  inhibition at 1 µM, %: 33

====

Tested on: ART (antigen-responding T-cell)
assay_info: In vitro ART (antigen-responding T-cell) proliferation test
Assay type: cell-based, Lewis rat
assay_conditions: Rattus norvegicus, T-cell, 1 μM; read-out: % Inhibition of ART growth
Recorded inhibition at 1 µM values for a group of compounds are listed next.

- compound: "O=C(c1ccccc1)N(CCSc1ccncc1)Cc1ccccc1 [Example 120]"
  inhibition at 1 µM (%): 16
- compound: "O=C1c2ccc([N+](=O)[O-])cc2C(=O)N1CSc1ccncc1 [Example 95]"
  inhibition at 1 µM (%): 20
- compound: "O=C1c2ccccc2C(O)N1CCCSc1ccncc1 (centres unmarked) [Example 110]"
  inhibition at 1 µM (%): -21
- compound: "CC(C)(CSc1ccncc1)CN1C(=O)c2ccccc2C1=O [Example 145]"
  inhibition at 1 µM (%): 17
- compound: "CCCC=C1SC(=O)N(CCCCSc2ccncc2)C1=O [Example 171]"
  inhibition at 1 µM (%): 96

====

Recorded Expression Inhibitory Potency, ELAM-1 values for a group of compounds are listed next.
Test system: ELAM-1
assay_info: Adhesion protein expression inhibitory activity, ELAM-1
Type: cell-based
assay_conditions: 13 μM, human umbilical vascular endothelial cells, TNF-α; 180 min

- compound: "O=c1[nH]c2ccccc2c(=O)n1CCCCSc1ccncc1 [Example 146]"
  Expression Inhibitory Potency, ELAM-1 (%): 33
- compound: "O=c1c2ccccc2n(CCCCSc2ccncc2)c(=O)n1CCCCSc1ccncc1 [Example 147]"
  Expression Inhibitory Potency, ELAM-1 (%): 96
- compound: "Cl.Cl.O=c1c2ccccc2n(CCCCSc2ccncc2)c(=S)n1CCCCSc1ccncc1 [Example 200]"
  Expression Inhibitory Potency, ELAM-1 (%): 71
- compound: "CCCC=C1SC(=O)N(CCCCSc2ccncc2)C1=O [Example 171]"
  Expression Inhibitory Potency, ELAM-1 (%): 94

====

Test system: Mouse phenylquinone writhing
assay_info: Mouse phenylquinone writhing inhibitory activity
Type: in vivo, mouse (Slc: ICR)
assay_conditions: Mus musculus, po, 20 min, 50 mg/kg, orally; read-out: Inhibitory percentage (phenylquinone writhing)

- molecule: "O=C(NCCCSc1ccncc1)c1ccccn1 [Example 42]"
  inhibition in vivo at 50 mg/kg [%]: 51
- molecule: "Cc1ccsc1C(=O)NCCCSc1ccncc1 [Example 60]"
  inhibition in vivo at 50 mg/kg [%]: 41
- molecule: "O=C(NCCCSc1ccncc1)c1ccncc1 [Example 43]"
  inhibition in vivo at 50 mg/kg [%]: 48
- molecule: "O=C(NCCCSc1ccncc1)c1cccs1 [Example 46, 4-[3-(2-thenoylamino)propylthio]pyridine]"
  inhibition in vivo at 50 mg/kg [%]: 66
- molecule: "O=C1c2ccccc2C(=O)N1CSc1ccncc1 [Example 62, 4-(phthalimidomethylthio)pyridine]"
  inhibition in vivo at 50 mg/kg [%]: 55

====

Tested on: Mouse phenylquinone writhing
assay_info: Mouse phenylquinone writhing inhibitory activity
Type: in vivo, mouse (Slc: ICR)
assay_conditions: Mus musculus, po, 20 min, 50 mg/kg, orally; read-out: Inhibitory percentage (phenylquinone writhing)
Structures can show the parent of a compound that is named as a salt.

- compound: "O=C1c2ccccc2C(=O)N1CCCOc1ccncc1"
  inhibition in vivo at 50 mg/kg (%): 59
- compound: "CN(CCCSc1ccncc1)C(=O)c1cccs1"
  inhibition in vivo at 50 mg/kg (%): 72
- compound: "O=C(Cc1cccs1)NCCCSc1ccncc1"
  inhibition in vivo at 50 mg/kg (%): 58
- compound: "CC(C)(C)C(=O)Nc1ncccc1CCN1C(=O)c2ccccc2C1=O.Cl [Example 71, hydrochloride]"
  inhibition in vivo at 50 mg/kg (%): 55
- compound: "O=C(NCCCSc1ccncc1)c1ccc(-c2ccccc2)cc1 [Example 26, hydrochloride]"
  inhibition in vivo at 50 mg/kg (%): 67
- compound: "CC(C)(C)C(=O)NCCCOc1ccncc1"
  inhibition in vivo at 50 mg/kg (%): 51
- compound: "O=C1c2ccccc2CN1CCCCSc1ccncc1"
  inhibition in vivo at 50 mg/kg (%): 89
- compound: "CC(C)(C)C(=O)NCCCSc1ccncc1.Cl [Example 24, hydrochloride]"
  inhibition in vivo at 50 mg/kg (%): 56
- compound: "O=C(N(CCCSc1ccncc1)Cc1cccs1)C(F)(F)F [Example 68, hydrochloride]"
  inhibition in vivo at 50 mg/kg (%): 50
- compound: "CC(C)(C)C(=O)Nc1ncccc1SCN1C(=O)c2ccccc2C1=O"
  inhibition in vivo at 50 mg/kg (%): 51
- compound: "O=C(NCCCOc1ccncc1)c1cccs1 [Example 89, 4-[3-(2-thenoylamino)propyloxy]pyridine]"
  inhibition in vivo at 50 mg/kg (%): 62
- compound: "O=C(N(CCCSc1ccncc1)Cc1ccccn1)C(F)(F)F [Example 78, dihydrochloride]"
  inhibition in vivo at 50 mg/kg (%): 55
- compound: "O=C(NCCCOc1ccncc1)c1cc2ccccc2s1"
  inhibition in vivo at 50 mg/kg (%): 70
